# System: Goodpasture autoantibody
# Test: Reactivity with Goodpasture autoantibody (western blotting)
# Format: binding, human
Readout Type: detection by antisera / autoantibodies from patients with Goodpasture syndrome

# Molecule, Experimental Result
records = [
    ("Tum-5-125-C-A: Tumstatin-44-131 with cysteine at position 125 mutated to alanine (SEQ ID NO:34) (protein, Tumstatin-5-125-C-A (amino acids 45-132 of SEQ ID NO10; alanine has been substituted for the cysteine residue at position 125 of the full-length Tumstatin molecule)) FSFLFVQGNQRAHGQDLGTLGSCLQRFTTMPFLFCNVNDVCNFASRNDYSYWLSTPALMPMNMAPITGRALEPYISRCTVAEGPAIAI", "failed to detect"),
    ("Tumstatin-44-131: residues 44 to 131 of full-length Tumstatin (SEQ ID NO:33) (protein, Tumstatin-45-132 (amino acids 45-132 of SEQ ID NO10)) FSFLFVQGNQRAHGQDLGTLGSCLQRFTTMPFLFCNVNDVCNFASRNDYSYWLSTPALMPMNMAPITGRALEPYISRCTVCEGPAIAI", "failed to detect"),
]
